Target: FXR (Homo sapiens (Human), UniProt Q96RI1)
Sequence (Q96RI1 262-486): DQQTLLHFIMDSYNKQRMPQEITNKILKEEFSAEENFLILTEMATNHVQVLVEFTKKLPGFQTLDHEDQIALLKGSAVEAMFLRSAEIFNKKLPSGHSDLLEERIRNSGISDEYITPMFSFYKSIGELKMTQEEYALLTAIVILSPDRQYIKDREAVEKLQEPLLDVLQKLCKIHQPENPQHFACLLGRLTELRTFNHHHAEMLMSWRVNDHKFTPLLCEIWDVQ
Test: FXR EC50 (FXR agonist potency reported with each Example)
Assay type: cell-based
Recorded EC50 by entry

| MOLECULE | EC50 [nM] |
| --- | --- |
| N#CC1(c2ccc(C34CCC(CN(C(=O)C56CC(F)(C5)C6)c5cccc(-c6nc(C7CC7)no6)c5)(CC3)CO4)cc2)CC1 [Example 146] | 334 |
| CCc1noc(-c2cccc(N(CC34CCC(c5ccc(C(C)(C)C#N)cc5)(CC3)OC4)C(=O)C3CCC3)c2)n1 [Example 48] | 299 |
| CC(C)(O)c1nc(-c2cccc(N(CC34CCC(c5nc(C6CC6)no5)(CC3)CC4)C(=O)C34CC(F)(C3)C4)c2)cs1 [Example 31] | 260 |
| COC1(c2nc(-c3cccc(N(CC45CCC(c6nc(C7CC7)no6)(CC4)CC5)C(=O)C45CC(F)(C4)C5)c3)no2)CC1 [Example 147] | 79 |
| CC(F)(F)c1nc(-c2cccc(N(CC34CCC(c5ccc(C(F)(F)F)cn5)(CC3)CC4)C(=O)C34CC(F)(C3)C4)c2)no1 [Example 190] | 281 |
| CC1(c2nc(-c3cccc(N(CC45CCC(c6nc(C(F)F)no6)(CC4)CC5)C(=O)C45CC(F)(C4)C5)c3)no2)COC1 [Example 173] | 139 |

###

Biological target: FXR (Homo sapiens (Human), UniProt Q96RI1)
Experiment: transient human FXR/Gal4-luciferase reporter assay
Format: cell-based
Conditions: Gal4-hFXR fusion construct, HEK293 reporter cells; response relative to 8 μM GW-4064
Entries are grouped by EC50 into these classes: bottom bin: < 200 nM; middle bin: ≥ 200 nM and < 500 nM; top bin: ≥ 500 nM

| MOLECULE | ASSIGNED LABEL |
| --- | --- |
| CC(C)Oc1ccc(-c2cccc(N(CC34CCC(c5noc(C(C)(F)F)n5)(CC3)CC4)C(=O)NC3CCOCC3)c2)cc1 | middle bin |
| CC(C)(F)c1nc(C23CCC(CN(c4cccc(C5=CC6(C5)CC(C(C)(C)O)C6)c4)C(=O)[C@H]4C[C@](O)(C(F)(F)F)C4)(CC2)CC3)no1 (stereo partly drawn) | bottom bin |
| COc1cc(-c2cccc(N(CC34CCC(c5cccc(C)n5)(CC3)CC4)C(=O)C34CC(F)(C3)C4)c2)ccn1 | top bin |
| CS(=O)(=O)Nc1ccc(-c2cncc(N(CC34CCC(c5nc(C6CC6)no5)(CC3)CC4)C(=O)C34CC(F)(C3)C4)c2)cc1 | top bin |
| COc1ccc(-c2cccc(N(CC34CCC(c5nc(C6CC6)no5)(CC3)CC4)C(=O)C34CC(F)(C3)C4)c2)cn1 | bottom bin |
| CCOc1ncc(-c2cccc(N(CC34CCC(c5noc(C6(C)CC6)n5)(CC3)CC4)C(=O)C34CC(F)(C3)C4)c2)cn1 | bottom bin |
| CC(C)(C#N)Oc1ccc(-c2cccc(N(CC34CCC(c5noc(C(C)(C)F)n5)(CC3)CC4)C(=O)N3CCC(C(C)(C)O)CC3)c2)cc1 | middle bin |
| CC(C)S(=O)(=O)Nc1ccc(-c2cccc(N(CC34CCC(c5nc(C6CC6)no5)(CC3)CC4)C(=O)C34CC(F)(C3)C4)c2)cc1 | bottom bin |
| O=C(N(CC12CCC(c3nc(C4CC4)no3)(CC1)CC2)c1cccc(-c2ccc3nc(O)ccc3c2)c1)C12CC(F)(C1)C2 | middle bin |
| N#Cc1cccc(-c2cccc(N(CC34CCC(c5nc(C6CC6)no5)(CC3)CC4)C(=O)C34CC(F)(C3)C4)c2)c1 | middle bin |
| CC(F)(F)c1nc(C23CCC(CN(C(=O)OC(C)(C)C(F)(F)F)c4cc(-c5ccc(OC(F)(F)Cl)cc5)ccn4)(CC2)CC3)no1 | middle bin |
